Experiment: In-vivo metabolism (pharmacokinetic) study in rats, oral / tail intravenous
Details: male, SD, rat, plasma; oral 10 mg/kg vs intravenous 1 mg/kg, rats
Use yes (1) when the recorded bioavailability is no lower than 50%; use no (0) when it is lower.

Sample answers from the record:
| Molecule | Assigned Category |
| --- | --- |
| C[C@@H](O)[C@H](N)C(=O)N1CC2(C1)N[C@H](C(N)=O)CS2.Cl [A-258] | no (0) |
| C[C@@H](O)[C@H](N)C(=O)N1CCC2(CC1)N[C@H](C(N)=O)CS2.Cl [A-274] | yes (1) |
| CC(C)[C@H](N)C(=O)N1CC2(C1)N[C@H](C(N)=O)CS2.Cl [A-260] | yes (1) |

Prompt: Hi team, for CC(=O)N1CCSC12CN(C(=O)[C@@H](N)[C@@H](C)O)C2.Cl [A-066] , is the recorded bioavailability at or above 50%?
Completion: yes (1)

Prompt: Hi team, for CC(=O)N1CCSC12CCN(C(=O)[C@@H](N)[C@@H](C)O)CC2.Cl [A-082] , is the recorded bioavailability at or above 50%?
Completion: no (0)

Prompt: Hi team, for C[C@@H](O)[C@H](N)C(=O)N1CC2(C1)NCCS2.Cl [A-006] , is the recorded bioavailability at or above 50%?
Completion: no (0)

Prompt: Hi team, for CC(C)C(=O)N1CCSC12CN(C(=O)[C@@H](N)[C@@H](C)O)C2.Cl [A-098] , is the recorded bioavailability at or above 50%?
Completion: no (0)

Hello, the source for this data is patent US20230348493A1, in case you need it.
